Experiment: chemical genetic growth profiling, strain panel (AID 1159580);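 further: tested at 20 µM; growth read once vehicle control cultures reached saturation at 30 °C; 1 = growth at the plate median or of vehicle wells; lower values mean less growth of the strain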
Settings: S. cerevisiae deletion strains, growth OD, locus YOL136C, strain PFK27, active compounds read low
In all, about 5,500 compounds went through this assay and about 2,000 (36%) were called active. Roughly 18% stayed inconclusive and do not appear here. The list shows a part of the results.
Record form. Attribute: normalized growth. Fill in for each entry.
Give bare numbers.

| COMPOUND | normalized growth |
| --- | --- |
| FC(F)(F)c1ccc(N2CCc3ccccc3C2)c(NC(=S)Nc2cc(Cl)cc(Cl)c2)c1 | 0.956 |

// for each compound below, give its normalized growth
1. O/N=C(/c1ccc(Cl)cc1)c1cc2ccccc2o1
2. Oc1c(Cl)cc(Cl)cc1/C=N\NC(=S)Nc1cc(C(F)(F)F)cc(C(F)(F)F)c1

[0.865, 0.139]

Below is a list of compounds. For each, state its recorded normalized growth.
1. OC1(C(F)(F)F)CC(c2ccc3ccccc3c2)=NN1 (stereo unspecified)
2. Cc1nnc2n1N=C(c1ccc(CC(C)C)cc1)C(C)S2 (stereo unspecified)
3. CN(C)C=Nc1nnc(Sc2nc3c(Cl)cc(Cl)cc3s2)s1

1: 0.211; 2: 0.975; 3: 0.984

----------
Assay: chemical genetic growth profiling, strain panel (AID 1159580);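 further: tested at 20 µM; growth read once vehicle control cultures reached saturation at 30 °C; 1 = growth at the plate median or of vehicle wells; lower values mean less growth of the strain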
Details: S. cerevisiae deletion strains, growth OD, locus YPL256C, strain CLN2, active compounds read low
The campaign covered roughly 5,500 compounds. About 2,000 (36%) were called active. Inconclusive results (about 18%) are left out. Some of the results follow.
METRIC_NAME: normalized growth
Answers are plain numbers.

Your task in this section: give normalized growth for each listed record.
1. NC(CSCSCC(N)C(=O)O)C(=O)O (stereo unspecified)
2. COC(=O)c1c(C)cc(O)cc1O
3. CCCCC1C(=O)N(c2ccccc2)N(c2ccc(O)cc2)C1=O (stereo unspecified)
4. CCOC(=O)c1c(C)cc(OC)cc1O
5. CCCCOc1cc(C(=O)NCCN(CC)CC)c2ccccc2n1

[1.02, 1.01, 0.953, 0.866, 1.01]

For every item in the list below, what is its measured normalized growth?
1. O/N=C(/c1ccc(Cl)cc1)c1cc2ccccc2o1
2. N#Cc1nn(-c2c(Cl)cc(C(F)(F)F)cc2Cl)c(N)c1S(=O)C(F)(F)F (stereo unspecified)
3. CCC(=O)O[C@H](CC(=O)O)C[N+](C)(C)C
4. O=C1Nc2ccccc2/C1=C\c1cccc([N+](=O)[O-])c1
5. CN(C)c1ccc2nc3ccc(=[N+](C)C)cc-3sc2c1
6. OC[C@H]1O[C@H](O[C@]2(CCl)O[C@H](CCl)[C@@H](O)[C@@H]2O)[C@H](O)[C@@H](O)[C@H]1Cl
7. CO[C@@]1(NC(=O)C(C(=O)O)c2ccc(O)cc2)C(=O)N2C(C(=O)O)=C(CSc3nnnn3C)CO[C@@H]21 (stereo partly specified)
8. CCC(N)C(O)c1ccc(O)c(O)c1 (stereo unspecified)

1. 0.917
2. 1.04
3. 1.04
4. 0.954
5. 1.02
6. 0.984
7. 0.961
8. 1.01

// each listed compound needs a value for normalized growth
1. COC(=O)c1c(C)cc(OC)cc1O
2. CC(CC(C(N)=O)(c1ccccc1)c1ccccc1)N(C)C (stereo unspecified)
3. CC/C(=C(/CC)c1ccc(O)cc1)c1ccc(O)cc1
4. C[C@]12CCC3c4ccc(O)cc4CCC3C1CC[C@@H]2O (stereo partly specified)
5. C[C@@H]1CC[C@@]2(OC1)O[C@H]1CC3C4CC[C@H]5C[C@@H](O)CC[C@]5(C)C4CC[C@]3(C)[C@H]1[C@@H]2C (stereo partly specified)
6. CCOC(=O)c1c(C)cc(O)cc1O

1.03
1.03
0.977
0.99
0.999
0.839

Dear colleague, could you send me normalized growth for each of the items below? Thanks.
1. OC1(C(F)(F)F)CC(c2ccc3ccccc3c2)=NN1 (stereo unspecified)
2. CN(C)C=Nc1nnc(Sc2nc3c(Cl)cc(Cl)cc3s2)s1
3. C[N+](C)(C)CC(O)CC(=O)O (stereo unspecified)
4. Cc1cc(OC(=O)c2c(C)cc(O)cc2O)cc(O)c1C(=O)O
5. O=[N+]([O-])c1cc(Cl)cc([N+](=O)[O-])c1Nc1ccccc1

1. 0.147
2. 1.1
3. 0.983
4. 1.01
5. 0.972

----------
Experiment: chemical genetic growth profiling, strain panel (AID 1159580);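 further: tested at 20 µM; growth read once vehicle control cultures reached saturation at 30 °C; 1 = growth at the plate median or of vehicle wells; lower values mean less growth of the strain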
Details: S. cerevisiae deletion strains, growth OD, locus YBR021W, strain FUR4, active compounds read low
In all, about 5,500 compounds went through this assay and about 2,000 (36%) were called active. About 18% were inconclusive and are not listed. The list shows a part of the results.
METRIC_NAME: normalized growth
Numbers only.

Known results for molecules:
| MOLECULE | normalized growth |
| --- | --- |
| CC/C(=C(/CC)c1ccc(O)cc1)c1ccc(O)cc1 | 0.992 |
| CCc1cc(C(N)=S)ccn1 | 1.06 |
| O=C(O[C@@H]1Cc2c(O)cc(O)cc2O[C@@H]1c1cc(O)c(=O)c2c(O)c(O)cc([C@H]3Oc4cc(O)cc(O)c4C[C@H]3O)c2c1)c1cc(O)c(O)c(O)c1 | 0.918 |
| CC(C1OC(C)(C)C(O)C1O)[C@@H]1CC[C@]2(C)C3=CCC4C(C)(C)C(=O)CC[C@]4(C)C3CC[C@@]12C (some centres undefined) | 1.06 |
| NC(=O)NCCCC(N)C(=O)O (centres undefined) | 1.01 |
| O=C(OC1Cc2c(O)cc(O)cc2OC1c1cc(=O)c(O)c2c(O)c(O)cc(C3Oc4cc(O)cc(O)c4CC3O)c2c1)c1cc(O)c(O)c(O)c1 (centres undefined) | 1.05 |
| CO[C@@]1(NC(=O)C(C(=O)O)c2ccc(O)cc2)C(=O)N2C(C(=O)O)=C(CSc3nnnn3C)CO[C@@H]21 (some centres undefined) | 0.998 |
| O=C(Cc1cccs1)NC1C(=O)N2C(C(=O)[O-])=C(C[n+]3ccccc3)CSC12 (centres undefined) | 1 |

Answer for every listed entry: what is its normalized growth? The entries follow.
1. CCC/C=C1\OC(=O)C2=C1CCC=C2
2. CCC(c1ccc(O)cc1)C(CC)c1ccc(O)cc1 (centres undefined)
3. NC(=O)c1ncn([C@@H]2O[C@H](CO)[C@@H](O)[C@H]2O)n1
4. CC(CC(O)C1OC1(C)C)[C@@H]1CCC2(C)C3=CCC4C(C)(C)C(=O)CCC4(C)C3CC[C@@]12C (some centres undefined)
5. CN[C@@H]1C(O)[C@@H](O[C@@H]2[C@@H](O)[C@H](O[C@H]3OC(CN)=CC[C@H]3N)[C@@H](N)C[C@H]2N)OC[C@]1(C)O (some centres undefined)
6. O=C(O[C@@H]1Cc2c(O)cc(O)cc2O[C@@H]1c1cc(O)c(=O)c2c(O)c(O)cc([C@H]3Oc4cc(O)cc(O)c4C[C@H]3OC(=O)c3cc(O)c(O)c(O)c3)c2c1)c1cc(O)c(O)c(O)c1
7. NC(=O)CN1CCCC1=O
8. CN1C(C)(C)CCCC1(C)C

0.967
0.972
0.965
0.993
1.02
0.986
1.02
1.01

State recorded normalized growth for all listed molecules.
1. CC1=CC(=O)C2=C(C)CC[C@@H]3[C@H](OC(=O)[C@H]3C)[C@@H]12
2. CN1C[C@H](C(=O)N[C@]2(C)O[C@@]3(O)[C@@H]4CCCN4C(=O)[C@H](Cc4ccccc4)N3C2=O)C[C@@H]2c3cccc4[nH]cc(c34)C[C@H]21
3. NS(=O)(=O)c1cc(C2(O)NC(=O)c3ccccc32)ccc1Cl (centres undefined)

1: 0.965; 2: 0.929; 3: 1.02

----------
Task for the reader: assign each of the following compounds its reported normalized growth.
Assay: chemical genetic growth profiling, strain panel (AID 1159580);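 further: tested at 20 µM; growth read once vehicle control cultures reached saturation at 30 °C; 1 = growth at the plate median or of vehicle wells; lower values mean less growth of the strain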
Details: S. cerevisiae deletion strains, growth OD, locus YHR205W, strain SCH9, active compounds read low
In all, about 5,500 compounds went through this assay and about 2,000 (36%) were called active. Another 18% or so got no clear call; they are omitted. The list shows a part of the results.
One number for each entry.

| COMPOUND | METRIC_NAME | OBS_VALUE |
| --- | --- | --- |
| OC1(C(F)(F)F)CC(c2ccc3ccccc3c2)=NN1 (stereo unspecified) | normalized growth | 0.138 |

# batch: return normalized growth for each of the 5 compounds below
1. COCCCNC(=S)N/N=C\c1cc(Cl)cc(Cl)c1O
2. CCCCNC(=S)N/N=C\c1cc(Cl)cc(Cl)c1O
3. Oc1c(Cl)cc(Cl)cc1/C=N\NC(=S)Nc1cc(C(F)(F)F)cc(C(F)(F)F)c1
4. FC(F)(F)c1cccc(NC(=S)NN=C2CCCCCC2)c1
5. CCOC(=O)N/N=C\c1cc(Cl)cc(Cl)c1O

[0.853, 0.236, 0.121, 0.914, 0.586]
